# EXPERIMENTAL SYSTEM: CS5 on an ETEC strain (enterotoxigenic Escherichia coli)
# ASSAY METHOD TEXT: cell-based or functional assay
Here the recorded MRHA IC100 is given for each entry.
MEASURED PROPERTY: MRHA IC100

# BINDER, MEASURED PROPERTY, ENDPOINT RESULT
rows = [
    ("VHH antibody 2R215 (monomeric nanobody) (VHH, Yeast-library clone, expressed in the E. coli periplasm and purified by Ni-NTA; also called monomeric 2R215; monomeric VHH 2R215) VHH: QVQLQESGGGLVQAGGSLRLSCAASGNIFQDAEMGWYRQAPGKEREFVATIAYGGNTNYADSVKGRFTISRDNAKNTVYLQMNSLKPEDTAVYYCAVYTGVYYDRTTGGYVAFEYWGQGTQVTVSS", "MRHA IC100", "6.25 µg/mL"),
    ("VHH antibody 1H4 (monomeric nanobody) (VHH) VHH: EVQLVESGGGLVQAGGSLRLSCAASSRTFNHYNIGWFRQAPGKEREFAAAITWNGRSTLYADSVKGRFTISRDNAKNTVYLQMNSLKPEDTAVYYCATLTTWEHKWEYNSQGQGTQVTVSS", "MRHA IC100", "3.12 µg/mL"),
    ("VHH antibody 2R23 (monomeric nanobody) (VHH, Yeast-library clone, expressed in the E. coli periplasm) VHH: QVQLQESGGGLVQAGGSLRLSCAASGYIFWSYGYMGWYRQAPGKERELVATISRGGTTNYADSVKGRFTISRDNAKNTVYLQMNSLKPEDTAVYYCAAGRYAFGYFKYWGQGTQVTVSS", "MRHA IC100", "12.5 µg/mL"),
    ("VHH antibody 1D7 (monomeric nanobody) (VHH) VHH: EVQLVESGGGLVQAGGSLTLSCAASERTFSYYVMAWFRQAPGKEREFVAGISMSGDSTKYADSVKGRFTISRDNAENTGYLQMNGLKPEDTAVYYCAADRDIRGNFRSWGRGTQVTVSS", "MRHA IC100", "3.12 µg/mL"),
]
